# Test target: c-met (Homo sapiens, UniProt P08581)
# Construct: endogenous in cells
# Sequence (P08581 25-1390): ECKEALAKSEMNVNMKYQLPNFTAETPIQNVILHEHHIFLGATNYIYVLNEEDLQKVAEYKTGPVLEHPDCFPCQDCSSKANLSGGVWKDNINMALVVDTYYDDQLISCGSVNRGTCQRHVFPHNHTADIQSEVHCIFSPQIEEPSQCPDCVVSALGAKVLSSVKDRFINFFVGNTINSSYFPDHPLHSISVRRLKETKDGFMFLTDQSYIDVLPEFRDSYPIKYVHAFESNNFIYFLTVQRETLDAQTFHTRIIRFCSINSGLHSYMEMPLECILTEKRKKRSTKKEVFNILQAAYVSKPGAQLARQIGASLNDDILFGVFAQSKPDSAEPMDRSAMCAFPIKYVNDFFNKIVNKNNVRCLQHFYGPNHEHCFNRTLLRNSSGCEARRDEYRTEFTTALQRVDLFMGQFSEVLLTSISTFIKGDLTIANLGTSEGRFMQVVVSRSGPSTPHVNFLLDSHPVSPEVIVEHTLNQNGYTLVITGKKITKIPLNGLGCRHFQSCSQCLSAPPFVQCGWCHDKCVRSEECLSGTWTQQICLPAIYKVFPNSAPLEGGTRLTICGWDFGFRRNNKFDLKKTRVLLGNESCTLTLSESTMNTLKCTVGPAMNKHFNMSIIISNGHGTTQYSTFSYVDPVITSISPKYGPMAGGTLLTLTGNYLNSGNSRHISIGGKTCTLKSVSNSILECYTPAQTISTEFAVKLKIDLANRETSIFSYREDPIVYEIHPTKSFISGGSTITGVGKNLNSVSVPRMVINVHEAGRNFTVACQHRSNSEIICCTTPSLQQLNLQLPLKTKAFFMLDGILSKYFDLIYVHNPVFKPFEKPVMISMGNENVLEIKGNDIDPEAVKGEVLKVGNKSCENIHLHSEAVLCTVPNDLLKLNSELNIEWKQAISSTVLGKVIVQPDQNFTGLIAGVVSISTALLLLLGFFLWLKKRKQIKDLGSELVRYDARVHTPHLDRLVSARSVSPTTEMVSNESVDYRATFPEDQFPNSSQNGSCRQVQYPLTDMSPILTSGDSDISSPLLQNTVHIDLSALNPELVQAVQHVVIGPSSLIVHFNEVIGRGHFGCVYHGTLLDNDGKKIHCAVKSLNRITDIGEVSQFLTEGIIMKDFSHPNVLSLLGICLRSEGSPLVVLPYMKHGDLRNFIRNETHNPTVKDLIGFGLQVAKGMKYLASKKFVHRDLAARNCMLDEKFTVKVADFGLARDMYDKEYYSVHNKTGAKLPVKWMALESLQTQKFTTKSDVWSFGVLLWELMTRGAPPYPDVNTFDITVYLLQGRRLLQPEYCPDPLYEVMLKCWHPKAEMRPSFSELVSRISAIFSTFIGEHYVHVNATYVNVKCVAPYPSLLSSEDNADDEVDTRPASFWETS
# Protocol summary: C-met Autoactivation Kinase Assay (AKA), ELISA type assay on HT29 cell lysate
# Experimental parameters: phosphorylation of c-met from HT29 lysate, 40 μM ATP
Reported endpoint: IC50 (nM)

> print(dat)
                                   molecule  reported.endpoint  output.unit  number
1  OCCCNc1nccc(-c2[nH]c(-c3c(Cl)cc(OCCO)cc3Cl)nc2-c2cccc(OCc3cccnc3)c2)n1 [Example H2]               IC50           nM      32
2  OCCCNc1nccc(-c2[nH]c(-c3c(Cl)cncc3Cl)nc2-c2cccc(OCc3ccccc3)c2)n1 [Example H4]               IC50           nM      23
3  OCCCNc1nccc(-c2[nH]c(-c3c(Cl)cc(OCCO)cc3Cl)nc2-c2cccc(OCc3ccncc3)c2)n1 [Example H3]               IC50           nM      54
4  OCCCNc1nccc(-c2[nH]c(-c3c(Cl)cc(OCCO)cc3Cl)nc2-c2cccc(OCc3ccccn3)c2)n1 [Example H1]               IC50           nM      22
